Biological target: human CXCR4 (human, UniProt P61073 1-352)
Sequence (P61073 whole entry): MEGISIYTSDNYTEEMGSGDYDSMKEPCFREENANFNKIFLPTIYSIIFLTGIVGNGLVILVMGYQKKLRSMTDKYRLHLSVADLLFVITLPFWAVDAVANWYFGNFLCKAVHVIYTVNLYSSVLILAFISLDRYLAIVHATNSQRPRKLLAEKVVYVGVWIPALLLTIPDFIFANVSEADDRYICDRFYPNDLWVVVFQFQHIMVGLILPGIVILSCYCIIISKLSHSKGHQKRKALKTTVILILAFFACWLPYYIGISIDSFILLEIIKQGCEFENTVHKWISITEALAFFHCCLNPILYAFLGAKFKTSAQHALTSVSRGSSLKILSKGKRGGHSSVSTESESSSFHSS
Test: cell-based or functional assay
Bridges are numbered along the chain shown (N, C = ends). [ ]: non-standard residue; d: D form. Phe(4-F) = N[C@@H](Cc1ccc(F)cc1)C(=O)O; 2Nal = N[C@@H](Cc1ccc2ccccc2c1)C(=O)O; Cit = NC(=O)NCCC[C@H](N)C(=O)O; Dab = NCC[C@H](N)C(=O)O
Lab note: compare IC50 (nM) Ca2+ assay (method 2) with 1 nM, writing yes (1) if less and no (0) if equal or more.

Solved entries (count: 6):
- Binder: "cyclo(GR[Cit]CRG[dP]RR[2Nal]CY[Cit]K[dP]P) (disulfide 4-11; SMILES N=C(N)NCCC[C@@H]1NC(=O)CNC(=O)[C@@H]2CCCN2C(=O)[C@H]2CCCN2C(=O)[C@H](CCCCN)NC(=O)[C@H](CCCNC(N)=O)NC(=O)[C@H](Cc2ccc(O)cc2)NC(=O)[C@@H]2CSSC[C@H](NC(=O)[C@H](CCCNC(N)=O)NC1=O)C(=O)N[C@@H](CCCNC(=N)N)C(=O)NCC(=O)N1CCC[C@@H]1C(=O)N[C@@H](CCCNC(=N)N)C(=O)N[C@@H](CCCNC(=N)N)C(=O)N[C@@H](Cc1ccc3ccccc3c1)C(=O)N2) [Example 114]"
  Group Label: "no (0)"
- Binder: "cyclo(YR[Cit]CRG[dP]RR[2Nal]CYQK[dP]P) (disulfide 4-11; SMILES N=C(N)NCCC[C@@H]1NC(=O)[C@@H]2CSSC[C@H](NC(=O)[C@H](Cc3ccc4ccccc4c3)NC(=O)[C@H](CCCNC(=N)N)NC(=O)[C@H](CCCNC(=N)N)NC(=O)[C@H]3CCCN3C(=O)CNC1=O)C(=O)N[C@@H](Cc1ccc(O)cc1)C(=O)N[C@@H](CCC(N)=O)C(=O)N[C@@H](CCCCN)C(=O)N1CCC[C@@H]1C(=O)N1CCC[C@H]1C(=O)N[C@@H](Cc1ccc(O)cc1)C(=O)N[C@@H](CCCNC(=N)N)C(=O)N[C@@H](CCCNC(N)=O)C(=O)N2) [Example 115]"
  Group Label: "no (0)"
- Binder: "cyclo(YR[Cit]CRG[dP][Phe(4-F)]R[2Nal]CYQK[dP]P) (disulfide 4-11; SMILES N=C(N)NCCC[C@@H]1NC(=O)[C@@H]2CSSC[C@H](NC(=O)[C@H](Cc3ccc4ccccc4c3)NC(=O)[C@H](CCCNC(=N)N)NC(=O)[C@H](Cc3ccc(F)cc3)NC(=O)[C@H]3CCCN3C(=O)CNC1=O)C(=O)N[C@@H](Cc1ccc(O)cc1)C(=O)N[C@@H](CCC(N)=O)C(=O)N[C@@H](CCCCN)C(=O)N1CCC[C@@H]1C(=O)N1CCC[C@H]1C(=O)N[C@@H](Cc1ccc(O)cc1)C(=O)N[C@@H](CCCNC(=N)N)C(=O)N[C@@H](CCCNC(N)=O)C(=O)N2) [Example 76]"
  Group Label: "no (0)"
- Binder: "cyclo(YR[Cit]CRG[dP][Dab]R[2Nal]CY[Cit]K[dP]P) (disulfide 4-11; SMILES N=C(N)NCCC[C@@H]1NC(=O)[C@@H]2CSSC[C@H](NC(=O)[C@H](Cc3ccc4ccccc4c3)NC(=O)[C@H](CCCNC(=N)N)NC(=O)[C@H](CCN)NC(=O)[C@H]3CCCN3C(=O)CNC1=O)C(=O)N[C@@H](Cc1ccc(O)cc1)C(=O)N[C@@H](CCCNC(N)=O)C(=O)N[C@@H](CCCCN)C(=O)N1CCC[C@@H]1C(=O)N1CCC[C@H]1C(=O)N[C@@H](Cc1ccc(O)cc1)C(=O)N[C@@H](CCCNC(=N)N)C(=O)N[C@@H](CCCNC(N)=O)C(=O)N2) [Example 134]"
  Group Label: "no (0)"
- Binder: "cyclo(YR[Cit]CRG[dP]HRWCY[Cit]K[dP]P) (disulfide 4-11; SMILES N=C(N)NCCC[C@@H]1NC(=O)[C@@H]2CSSC[C@H](NC(=O)[C@H](Cc3c[nH]c4ccccc34)NC(=O)[C@H](CCCNC(=N)N)NC(=O)[C@H](Cc3c[nH]cn3)NC(=O)[C@H]3CCCN3C(=O)CNC1=O)C(=O)N[C@@H](Cc1ccc(O)cc1)C(=O)N[C@@H](CCCNC(N)=O)C(=O)N[C@@H](CCCCN)C(=O)N1CCC[C@@H]1C(=O)N1CCC[C@H]1C(=O)N[C@@H](Cc1ccc(O)cc1)C(=O)N[C@@H](CCCNC(=N)N)C(=O)N[C@@H](CCCNC(N)=O)C(=O)N2) [Example 137]"
  Group Label: "no (0)"
- Binder: "cyclo(YRICRG[dP]RR[2Nal]CYQK[dP]P) (disulfide 4-11; SMILES CC[C@H](C)[C@@H]1NC(=O)[C@H](CCCNC(=N)N)NC(=O)[C@H](Cc2ccc(O)cc2)NC(=O)[C@@H]2CCCN2C(=O)[C@H]2CCCN2C(=O)[C@H](CCCCN)NC(=O)[C@H](CCC(N)=O)NC(=O)[C@H](Cc2ccc(O)cc2)NC(=O)[C@@H]2CSSC[C@H](NC1=O)C(=O)N[C@@H](CCCNC(=N)N)C(=O)NCC(=O)N1CCC[C@@H]1C(=O)N[C@@H](CCCNC(=N)N)C(=O)N[C@@H](CCCNC(=N)N)C(=O)N[C@@H](Cc1ccc3ccccc3c1)C(=O)N2) [Example 71]"
  Group Label: "no (0)"

**Query** Does the reported IC50 (nM) Ca2+ assay (method 2) of cyclo(RRWCYQKCYKGYCYR[Cit]CRG[dP]) (disulfide 8-13, 4-17) [Example 155] stay below 1 nM?
**Result** yes (1)

**Query** Take the binder cyclo(YRYCRG[dP]RRYCYQK[dP]P) (disulfide 4-11; SMILES N=C(N)NCCC[C@@H]1NC(=O)[C@@H]2CSSC[C@H](NC(=O)[C@H](Cc3ccc(O)cc3)NC(=O)[C@H](CCCNC(=N)N)NC(=O)[C@H](CCCNC(=N)N)NC(=O)[C@H]3CCCN3C(=O)CNC1=O)C(=O)N[C@@H](Cc1ccc(O)cc1)C(=O)N[C@@H](CCC(N)=O)C(=O)N[C@@H](CCCCN)C(=O)N1CCC[C@@H]1C(=O)N1CCC[C@H]1C(=O)N[C@@H](Cc1ccc(O)cc1)C(=O)N[C@@H](CCCNC(=N)N)C(=O)N[C@@H](Cc1ccc(O)cc1)C(=O)N2) [Example 148] and say whether its IC50 (nM) Ca2+ assay (method 2) is less than 1 nM.
**Result** yes (1)
